Molecular target: I-Ag7 protein (mouse MHC class II molecule of the NOD mouse), affinity-purified from 4G4.7 B cell hybridoma cells (mouse (NOD))
Assay: competition ELISA on purified I-Ag7 against ~200 nM biotinylated HEL 10-23
measured attribute: IC50 (µM)

binder | measure unit | IC50
ALEGSLQKRGIVEQA [human proinsulin peptide (57-71), cysteines substituted by alanine] | µM | 15

a = KTRREAEDLQVGQVE [human proinsulin peptide (29-43)]
b = RGIVEQAATSIASLY [human proinsulin peptide (65-79), from the A-chain of insulin, cysteines replaced by alanines]
Ask: Endpoint returns the identifier whose IC50 is numerically larger, either a or b . Indicate your choice by writing its label.
Result: a

Ref: patent US8075899B1
